In this section, each of the molecules is paired with its reported ED25.
- System: gastric secretion (HCl) (rat stomach)
- ASSAY_METHOD_TEXT: Shay rat: inhibition of gastric secretion (HCl) in the course of 4 h
- Assay type: in vivo
- SETUP_CONDITIONS: Rattus norvegicus, po; perorally, rats; dose reducing HCl secretion (4 h) by 25% vs control

{"columns": ["MOLECULE", "TARGET_ENTITY", "ED25"],
 "data": [
  ["COc1ccnc(C[S+]([O-])c2nc3cc(OC(F)(F)Cl)ccc3[nH]2)c1 (stereo not drawn)", "gastric secretion (HCl) (rat stomach)", "< 1 mg/kg"],
  ["COc1cc2[nH]c(SCc3nccc(OC)c3C)nc2cc1OC(F)F", "gastric secretion (HCl) (rat stomach)", "~0.3 mg/kg"],
  ["COc1ccnc(C[S+]([O-])c2nc3cc(OC(F)F)ccc3[nH]2)c1C (stereo not drawn)", "gastric secretion (HCl) (rat stomach)", "~0.3 mg/kg"],
  ["COc1ccnc(CSc2nc3cc(OCC(F)(F)F)ccc3[nH]2)c1C", "gastric secretion (HCl) (rat stomach)", "0.5 mg/kg"],
  ["COc1ccnc(C[S+]([O-])c2nc3cc(OC(F)F)c(OC(F)F)cc3[nH]2)c1C (stereo not drawn)", "gastric secretion (HCl) (rat stomach)", "~0.3 mg/kg"],
  ["COc1ccnc(C[S+]([O-])c2nc3cc(OC(F)(F)F)ccc3[nH]2)c1 (stereo not drawn)", "gastric secretion (HCl) (rat stomach)", "0.5 mg/kg"]
]}
